Assay: Metabolic stability in extensive metabolizer human liver microsomes with and without quinidine
Format: in vitro ADME
Conditions: human, pH 7.4, with quinidine 0.2 µM; quinidine 0.2 μM; EM HLM 1.0 mg/mL, 100 ng/mL test compound, 60 min
Protocol: Individual donor with extensive metabolizer human liver microsomes (EM HLM) (20 mg/mL) with CYP2D6 activity of 957±19 pmol/mg protein/min, genotyped for CYP2D6 allelic variant-CYP2D6*1/*2x2, were obtained from Xenotech, LLC (Lenexa, Kans.). β-nicotinamide adenine dinucleotide phosphate, reduced form (NADPH), magnesium chloride (MgCl2), dimethyl sulfoxide (DMSO), acetonitrile (ACN), quinidine, and dextromethorphan (DM) were purchased from Sigma-Aldrich. […]
Give measured half-life at 100 ng/mL for each item. Keep answers brief.
Answers are plain numbers, in min.

# molecule, half-life at 100 ng/mL / min
records = [
    ("[2H]C([2H])([2H])c1ccc2c(c1)[C@]13CCCC[C@@H]1[C@H](C2)N(C([2H])([2H])[2H])CC3", 37.9),
    ("COc1ccc2c(c1)[C@]13CCCC[C@@H]1[C@H](C2)N(C)CC3", 64.5),
]

**Query** Identify measured half-life at 100 ng/mL associated with Cc1ccc2c(c1)[C@]13CCCC[C@@H]1[C@H](C2)N(C)CC3 [Dimemorfan, (+)-(9α,13α,14α)-3,17-dimethylmorphinan]
**Result** 43.1

====

Assay: Metabolic stability in extensive metabolizer human liver microsomes with and without quinidine
Format: in vitro ADME
Conditions: human, pH 7.4, with quinidine 0.025 µM; quinidine 0.025 μM; EM HLM 1.0 mg/mL, 100 ng/mL test compound, 60 min
readout.label: half-life at 100 ng/mL
Show the value, then the unit it is measured in.

Would you please look over these solved cases?
# molecule, value.measured
data = [
    ("COc1ccc2c(c1)[C@]13CCCC[C@@H]1[C@H](C2)N(C)CC3", "29.6 min"),
    ("[2H]C([2H])([2H])c1ccc2c(c1)[C@]13CCCC[C@@H]1[C@H](C2)N(C([2H])([2H])[2H])CC3", "13.2 min"),
]

**Query** Identify measured half-life at 100 ng/mL associated with Cc1ccc2c(c1)[C@]13CCCC[C@@H]1[C@H](C2)N(C)CC3 [Dimemorfan, (+)-(9α,13α,14α)-3,17-dimethylmorphinan]
**Result** 12.8 min

====

Assay: Metabolic stability in extensive metabolizer human liver microsomes with and without quinidine
Type: in vitro ADME
Conditions: human, pH 7.4, with quinidine 0.0125 µM; quinidine 0.0125 μM; EM HLM
Give measured CLint scaled at 100 ng/mL for each item. Keep answers brief.

# molecule, CLint scaled at 100 ng/mL
records = [
    ("COc1ccc2c(c1)[C@]13CCCC[C@@H]1[C@H](C2)N(C)CC3", "12.1 mL/min/kg"),
    ("Cc1ccc2c(c1)[C@]13CCCC[C@@H]1[C@H](C2)N(C)CC3 [Dimemorfan, (+)-(9α,13α,14α)-3,17-dimethylmorphinan]", "50.8 mL/min/kg"),
]

Pending molecule:
**Query** Identify measured CLint scaled at 100 ng/mL associated with `[2H]C([2H])([2H])c1ccc2c(c1)[C@]13CCCC[C@@H]1[C@H](C2)N(C([2H])([2H])[2H])CC3`
**Result** 30.9 mL/min/kg

====

Test: Metabolic stability in extensive metabolizer human liver microsomes with and without quinidine
Format: in vitro ADME
Conditions: human, pH 7.4, with quinidine 0.1 µM; quinidine 0.1 μM; EM HLM 1.0 mg/mL, 100 ng/mL test compound, 60 min
Give measured half-life at 100 ng/mL for each item. Keep answers brief.
One number for each entry, in min.

Would you please look over these solved cases?
# compound, half-life at 100 ng/mL / min
rows = [
    ("[2H]C([2H])([2H])c1ccc2c(c1)[C@]13CCCC[C@@H]1[C@H](C2)N(C([2H])([2H])[2H])CC3 [D6-Dimemorfan]", 31.1),
    ("COc1ccc2c(c1)[C@]13CCCC[C@@H]1[C@H](C2)N(C)CC3 [DM]", 42.1),
]

Pending compound:
**Query** Identify measured half-life at 100 ng/mL associated with Cc1ccc2c(c1)[C@]13CCCC[C@@H]1[C@H](C2)N(C)CC3 [Dimemorfan, (+)-(9α,13α,14α)-3,17-dimethylmorphinan]
**Result** 25.5

====

Test: Metabolic stability in extensive metabolizer human liver microsomes with and without quinidine
Format: in vitro ADME
Conditions: human, pH 7.4, with quinidine 0.0125 µM; quinidine 0.0125 μM; EM HLM 1.0 mg/mL, 100 ng/mL test compound, 60 min
readout.label: half-life at 100 ng/mL (min)
Numbers only, in min.

Would you please look over these solved cases?
# molecule, units.label, half-life at 100 ng/mL
rows = [
    ("[2H]C([2H])([2H])c1ccc2c(c1)[C@]13CCCC[C@@H]1[C@H](C2)N(C([2H])([2H])[2H])CC3", "min", 10.1),
    ("Cc1ccc2c(c1)[C@]13CCCC[C@@H]1[C@H](C2)N(C)CC3 [Dimemorfan, (+)-(9α,13α,14α)-3,17-dimethylmorphinan]", "min", 6.34),
]

Pending molecule:
**Query** Identify measured half-life at 100 ng/mL associated with `COc1ccc2c(c1)[C@]13CCCC[C@@H]1[C@H](C2)N(C)CC3`
**Result** 25.6

====

Test: Metabolic stability in extensive metabolizer human liver microsomes with and without quinidine
Format: in vitro ADME
Conditions: human, pH 7.4, with quinidine 0.2 µM; quinidine 0.2 μM; EM HLM
Give measured CLint scaled at 100 ng/mL for each item. Keep answers brief.
Answers are plain numbers, in mL/min/kg.

Would you please look over these solved cases?
# compound, units.label, value.measured
rows = [
    ("COc1ccc2c(c1)[C@]13CCCC[C@@H]1[C@H](C2)N(C)CC3 [DM]", "mL/min/kg", 4.8),
    ("[2H]C([2H])([2H])c1ccc2c(c1)[C@]13CCCC[C@@H]1[C@H](C2)N(C([2H])([2H])[2H])CC3 [D6-Dimemorfan]", "mL/min/kg", 8.2),
]

Pending compound:
**Query** Identify measured CLint scaled at 100 ng/mL associated with Cc1ccc2c(c1)[C@]13CCCC[C@@H]1[C@H](C2)N(C)CC3 [Dimemorfan, (+)-(9α,13α,14α)-3,17-dimethylmorphinan]
**Result** 7.4

====

Assay: Metabolic stability in extensive metabolizer human liver microsomes with and without quinidine
Format: in vitro ADME
Conditions: human, pH 7.4, with quinidine 0.05 µM; quinidine 0.05 μM; EM HLM
Give measured CLint scaled at 100 ng/mL for each item. Keep answers brief.
Show the value, then the unit it is measured in.

# compound, CLint scaled at 100 ng/mL
data = [
    ("[2H]C([2H])([2H])c1ccc2c(c1)[C@]13CCCC[C@@H]1[C@H](C2)N(C([2H])([2H])[2H])CC3", "17.3 mL/min/kg"),
    ("Cc1ccc2c(c1)[C@]13CCCC[C@@H]1[C@H](C2)N(C)CC3 [Dimemorfan, (+)-(9α,13α,14α)-3,17-dimethylmorphinan]", "19.3 mL/min/kg"),
]

Pending compound:
**Query** Identify measured CLint scaled at 100 ng/mL associated with `COc1ccc2c(c1)[C@]13CCCC[C@@H]1[C@H](C2)N(C)CC3`
**Result** 9.5 mL/min/kg

====

Assay: Metabolic stability in extensive metabolizer human liver microsomes with and without quinidine
Type: in vitro ADME
Details: human, pH 7.4, with quinidine 0.025 µM; quinidine 0.025 μM; EM HLM
readout.label: CLint scaled at 100 ng/mL (mL/min/kg)
Numbers only, in mL/min/kg.

# molecule, value.measured
data = [
    ("[2H]C([2H])([2H])c1ccc2c(c1)[C@]13CCCC[C@@H]1[C@H](C2)N(C([2H])([2H])[2H])CC3", 23.6),
    ("Cc1ccc2c(c1)[C@]13CCCC[C@@H]1[C@H](C2)N(C)CC3 [Dimemorfan, (+)-(9α,13α,14α)-3,17-dimethylmorphinan]", 24.7),
]

Pending molecule:
**Query** Identify measured CLint scaled at 100 ng/mL associated with `COc1ccc2c(c1)[C@]13CCCC[C@@H]1[C@H](C2)N(C)CC3`
**Result** 10.6

====

Assay: Metabolic stability in extensive metabolizer human liver microsomes with and without quinidine
Type: in vitro ADME
Conditions: human, pH 7.4, with none (quinidine 0 µM, control); quinidine 0 μM; EM HLM 1.0 mg/mL, 100 ng/mL test compound, 60 min
Give measured half-life at 100 ng/mL for each item. Keep answers brief.
One number for each entry, in min.

# molecule, value.measured
records = [
    ("Cc1ccc2c(c1)[C@]13CCCC[C@@H]1[C@H](C2)N(C)CC3 [Dimemorfan, (+)-(9α,13α,14α)-3,17-dimethylmorphinan]", 4.81),
    ("COc1ccc2c(c1)[C@]13CCCC[C@@H]1[C@H](C2)N(C)CC3", 20.5),
]

Pending molecule:
**Query** Identify measured half-life at 100 ng/mL associated with `[2H]C([2H])([2H])c1ccc2c(c1)[C@]13CCCC[C@@H]1[C@H](C2)N(C([2H])([2H])[2H])CC3`
**Result** 6.5
